assay.notes: folding enthalpy; higher = less favourable; fluorescence melt of hairpins on a sequencing array, two-state fit
protocol.conditions: sodium 0.088 M
Mark Y for reported folding enthalpy of -30 kcal/mol or greater; mark N for anything smaller.

A selection of reference data follows.
Query: Say whether GCGTCAGGAAACTGGCGC (((.(((....))).))) shows folding enthalpy of -30 kcal/mol or more.
Result: N

Query: Determine whether this sequence has folding enthalpy no lower than -30 kcal/mol: GGTATCGAAAGATGCACC ((((((....)))..)))
Result: Y

Query: Would you say GCGCGAGGAAACTTGCGC ((((.((....)).)))) shows folding enthalpy at minimum -30 kcal/mol?
Result: N

Next:
Query: Does the sequence GAGTAAACGAAAGTTCTC (((..(((....)))))) have recorded folding enthalpy that is -30 kcal/mol or more?
Result: Y

Query: Decide: folding enthalpy of GTTAGGGGAAACCCTGAC ((.((((....)))).)) >= -30 kcal/mol?
Result: Y

Query: Dear colleague, could you confirm whether GCTAAGCGAAAGCCTAGC ((((.((....)).)))) has folding enthalpy at or above -30 kcal/mol?
Result: Y

Query: Does the sequence CGATCCGGAAACGGTTCG (((.(((....))).))) have recorded folding enthalpy that is -30 kcal/mol or more?
Result: N

Query: Tell me whether folding enthalpy is at least -30 kcal/mol here: GGAGGACGAAAGTCGTCC (((.(((....))).)))
Result: Y

Query: I'd appreciate it if you could say whether GATCCTCAAGAGGATC ((((((....)))))) has folding enthalpy at least equal to -30 kcal/mol.
Result: N
